pKd for assorted binders
Target: T1, PUF4 RNA-binding domain (Saccharomyces cerevisiae, UniProt P25339 537-888)
T1 sequence: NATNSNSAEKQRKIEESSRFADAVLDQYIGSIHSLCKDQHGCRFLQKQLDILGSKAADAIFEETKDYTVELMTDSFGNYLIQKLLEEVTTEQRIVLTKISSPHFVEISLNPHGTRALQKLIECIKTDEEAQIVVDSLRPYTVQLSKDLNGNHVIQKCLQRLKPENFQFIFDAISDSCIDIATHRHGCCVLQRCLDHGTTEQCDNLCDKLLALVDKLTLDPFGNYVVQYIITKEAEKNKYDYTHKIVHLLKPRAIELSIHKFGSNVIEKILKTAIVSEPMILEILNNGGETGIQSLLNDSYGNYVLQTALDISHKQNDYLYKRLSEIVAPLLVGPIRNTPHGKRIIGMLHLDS
Test: Mg; RNA-MaP; 20 mM Na-HEPES pH 7.4, 30 mM KOAc, 0.75 mM MgCl2, 0.1% Tween-20, 5% glycerol, 0.1 mg/mL BSA, 2 mM DTT; 25 C; 0.0125-409.6 nM protein
Conditions: tags: N-His6-TEV cleaved; C-SNAP kept, Cy3B-labelled; label: tethered on chip by stalled RNA polymerase
In plain terms, pKd is the concentration in mol/L turned into minus its base-10 logarithm.

Lab note: Ic_S4_P5E.1_K5.1_C5.1_H5.1_A5.1_[A7T]_F5.1_[T8A]_[A10G]_T5.1 (ssRNA) RNA: UUUGACAACUGAUCGUUCUUUCUUGUAUUUAUGUUCUUUCUCGAUCAGUUGUCUUU gave pKd of 7.91

Data point: UCUCUUUGUCUAUUAUUAUCUCUU (ssRNA) [Ie_S1_P5E.1_K5.1_C5.1_H5.1_[+2TC]_A5.1_F5.1_T5.1] ; pKd = 7.73

Value of measured pKd for the entry Id_ii_S2_P5E.4_K5.3_C5.2_[C-2G]_H5.3_A5.1_F5.1_T5.2_[A12C] (ssRNA) RNA: UUUGAUUAAUAUGAUAUCGUUCUUUCUGUACACUUAUUAUCUUCUUUCUCGAUAUCAUAUUAAUCUUU : 8.95

Entry under test: UCUCUUUGUAUAUUUUUAUCUCUU (ssRNA) [Ie_S1_P4E.1_K4.1_C4.1_H4.1_A4.1_[+7TTT]_F4.1_T4.1] . Its pKd was 8.23

# binder Ib_S2_P5E.1_K5.1_C5.1_H5.1_A5.1_F5.1_[T9C]_[A10C]_T5.1 (ssRNA) RNA: UUUGAUUAAUAUGAUAUCGUUCUUUCUUGUAUUAUCCUUCUUUCUCGAUAUCAUAUUAAUCUUU ; its pKd = 7.71
